Ref: PubChem BioAssay (NCI)

test system: RXF 393 renal; test: NCI tumour cell line growth inhibition, 48 h
Readout Kind: log10(TGI) (log10 of the value in µM)
Lab note - TGI converted to log10 from values in µM.

Find log10(TGI) (RXF 393 renal) for the entry CC1=CCC2C3(C)CCC2(C(C)C)C1C3 (stereo not given) (tested in a mixture with another compound)
1.52

Give the reported log10(TGI) for CC=CCOc1cc(NC(=S)OC(C)C)ccc1Cl (mixture of isomers) (system: RXF 393 renal).
1.49

Give recorded log10(TGI) with RXF 393 renal for the following compound: CN1CCN(c2ccc(Nc3nc(N)c(C(=O)c4ccc5c(c4)OCCO5)s3)cc2)CC1
0.76

Record c1ccc(P(CCP(c2ccccn2)c2ccccn2)c2ccccc2)cc1 : what is its log10(TGI) with RXF 393 renal?
1.99

Param readout= log10(TGI); system= RXF 393 renal; entry= O=[N+]([O-])c1ccccc1NC1c2ccccc2Oc2ccccc21 ; returns value.
1.22
